# IC50 listing for each entry below
- Assay System: Bcl-2 protein (histag-Bcl-2, UniProtKB P10415) (Homo sapiens, UniProt P10415)
- Construct: His tag
- Sequence (P10415 whole entry): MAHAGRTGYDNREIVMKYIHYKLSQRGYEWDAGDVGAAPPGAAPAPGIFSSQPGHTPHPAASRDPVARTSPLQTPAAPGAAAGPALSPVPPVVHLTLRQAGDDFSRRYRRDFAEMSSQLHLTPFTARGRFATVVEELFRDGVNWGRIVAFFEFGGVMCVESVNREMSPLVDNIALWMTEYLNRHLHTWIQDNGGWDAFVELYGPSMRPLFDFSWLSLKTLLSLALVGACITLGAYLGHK
- Assay: Inhibition of Bcl-2 by the fluorescence polarisation technique
- Type: binding
- Condition Set: fluorescence polarisation, 2 hours incubation; read-out: IC50 (nM) Bcl-2 FP
Counter-ions that a name gives are not always drawn.
Number only, in nM; omit the unit.

1) C[C@@H]1Cc2ccccc2CN1C(=O)c1ccccc1-c1cc(C(=O)N(c2ccc(O)cc2)c2cnc3c(ccn3C)c2)c2ccccn12    7.9
2) CCCCN(CCCC)C(=O)c1cc(-c2cc3c(cc2C(=O)N2Cc4ccccc4C[C@H]2C)OCO3)n2c1CNCC2    823

# ---- query compound ----
Given C[C@@H]1Cc2ccccc2CN1C(=O)c1ccccc1-c1cc(C(=O)N(c2ccncc2)c2ccc(O)cc2)c2ccccn12 [Example 68, hydrochloride] , respond with its IC50. 8.3

###

- Test system: RS4;11 leukaemia tumour line
- Assay: In vitro cytotoxicity (MTT) on RS4;11
- Type: cell-based
- Condition Set: Homo sapiens; RS4;11 cells, 48 hours exposure
Where a name gives a salt, the structure may show the parent alone.
Quantity Measured: IC50 (nM)
Answer with a number only, understood to be in nM.

A selection of reference data follows.
1. O=C(c1cc2c(cc1-c1cc(C(=O)N(c3ccc(O)cc3)c3ccc(OCCN4CCOCC4)c(F)c3)c3ccccn13)OCO2)N1CCc2ccccc2C1 [Example 18, hydrochloride]    47.7
2. C[C@@H]1Cc2ccccc2CN1C(=O)c1cc2c(cc1-c1cc(C(=O)N(c3ccccc3)c3ccc(O)cc3)c3n1CCCC3)OCO2    49

# evaluate next
Could you please provide reported IC50 for CC(C)N(C(=O)c1cc(-c2cc3c(cc2C(=O)N2Cc4ccccc4C[C@H]2C)OCO3)n2c1CNCC2)c1ccc(O)cc1 ? Thanks! 1880

###

- Tested on: RS4;11 leukaemia tumour line
- Assay: In vitro cytotoxicity (MTT) on RS4;11
- Assay type: cell-based
- Condition Set: Homo sapiens; RS4;11 cells, 48 hours exposure
Structures can show the parent of a compound that is named as a salt.
log10 of IC50 values, listed per item
Values below are the log10 of the recorded IC50, with nM as the unit.

Answered examples (5):
1) C[C@@H]1Cc2ccccc2CN1C(=O)c1ccc(Cl)cc1-c1cc(C(=O)N(c2ccc(O)cc2)c2cnn(C)c2)c2n1CCCC2    1.95
2) C[C@@H]1Cc2ccccc2CN1C(=O)c1cc2c(cc1-c1cc(C(=O)N(c3ccc(O)cc3)c3ccc4c(ccn4C)c3)c3n1CCCC3)OCO2    1.05
3) Cc1cn2ccc(N(C(=O)c3cc(-c4cc5c(cc4C(=O)N4Cc6ccccc6C[C@H]4C)OCO5)n4ccccc34)c3ccc(O)cc3)cc2n1 [Example 53, hydrochloride]    1.85
4) C[C@@H]1Cc2ccccc2CN1C(=O)c1ccc(Cl)cc1-c1cc(C(=O)N(c2ccc(O)cc2)c2ccc3c(ccn3C)c2)c2n1CCN(C)C2    2.03
5) Cc1ccc(N(C(=O)c2cc(-c3cc4c(cc3C(=O)N3Cc5ccccc5C[C@H]3C)OCO4)n3ccccc23)c2ccc(O)cc2)cn1 [Example 54, hydrochloride]    1.65

Let us move to another entry and its log10 of IC50.
Identify measured log10 of IC50 obtained with RS4;11 leukaemia tumour line for CCN(C(=O)c1cc(-c2cc3c(cc2C(=O)N2CCc4ccccc4C2)OCO3)n2c1CCCC2)c1ccc(O)cc1 . 3.13

###

- System: RS4;11 leukaemia tumour line
- Assay: In vitro cytotoxicity (MTT) on RS4;11
- Assay type: cell-based
- Condition Set: Homo sapiens; RS4;11 cells, 48 hours exposure
Where a name gives a salt, the structure may show the parent alone.
Mark Y only when IC50 stays strictly below 40 nM. Values equal to the cut-off are N.

1. C[C@@H]1Cc2ccccc2CN1C(=O)c1cc2c(cc1-c1cc(C(=O)N(c3ccc(O)cc3)c3cccnc3)c3ccccn13)OCO2 [Example 34, hydrochloride]    Y
2. C[C@@H]1Cc2ccccc2CN1C(=O)c1ccc(Cl)cc1-c1cc(C(=O)N(c2ccncc2)c2ccc(O)cc2)c2ccccn12 [Example 49, hydrochloride]    N
3. C[C@@H]1Cc2ccccc2CN1C(=O)c1ccc(F)cc1-c1cc(C(=O)N(c2ccc(O)cc2)c2cnc3c(ccn3C)c2)c2ccccn12    Y
4. CCCCN(C(=O)c1cc(-c2cc3c(cc2C(=O)N2CCc4ccccc4C2)OCO3)n2c1CCCC2)c1ccc(O)cc1    N

Below 40 nM on IC50? Entry COc1cc(N(C(=O)c2cc(-c3cc4c(cc3C(=O)N3Cc5ccccc5C[C@H]3C)OCO4)n3ccccc23)c2ccc(O)cc2)ccn1 Y

Dear colleague, could you confirm whether IC50 of C[C@@H]1Cc2ccccc2CN1C(=O)c1cc2c(cc1-c1cc(C(=O)N(c3ccc(O)cc3)c3ccc4c(ccn4CCN4CCOCC4)c3)c3n1CCCC3)OCO2 [Example 2, hydrochloride] falls below 40 nM? Thanks. Y

###

- Assay System: Bcl-2 protein (histag-Bcl-2, UniProtKB P10415) (Homo sapiens, UniProt P10415)
- Construct: His tag
- Assay: Inhibition of Bcl-2 by the fluorescence polarisation technique
- Format: binding
- Condition Set: fluorescence polarisation, 2 hours incubation; read-out: IC50 (nM) Bcl-2 FP
Structures can show the parent of a compound that is named as a salt.
Field: label. Allowed values: Yes (IC50 < 6 nM) or No (IC50 >= 6 nM).

Does the reported IC50 of the following molecule sit strictly below 6 nM? NCC[C@@H]1Cc2ccccc2CN1C(=O)c1cc2c(cc1-c1cc(C(=O)N(c3ccccc3)c3ccc(O)cc3)c3n1CCCC3)OCO2 [Example 37, hydrochloride] Yes

Please check: IC50 for O=C(c1cc(-c2ccccc2C(=O)N2Cc3ccccc3C[C@H]2CCN2CCOCC2)n2c1CCCC2)N(c1ccccc1)c1ccc(O)cc1 [Example 20, hydrochloride] , strictly under 6 nM or not? No

Is IC50 of Cc1cc(N(C(=O)c2cc(-c3cc4c(cc3C(=O)N3Cc5ccccc5C[C@H]3C)OCO4)n3ccccc23)c2ccc(O)cc2)cc(C)n1 [Example 39, hydrochloride] strictly below 6 nM? Yes

###

- System: RS4;11 leukaemia tumour line
- Assay: In vitro cytotoxicity (MTT) on RS4;11
- Type: cell-based
- Condition Set: Homo sapiens; RS4;11 cells, 48 hours exposure
Counter-ions that a name gives are not always drawn.
Quantity Measured: IC50 (nM)
Entry rule: numbers only, all in nM.

1) C[C@@H]1Cc2ccccc2CN1C(=O)c1ccc(Cl)cc1-c1cc(C(=O)N(c2ccc(O)cc2)c2ccc3c(ccn3CCN3CCOCC3)c2)c2ccccn12 [Example 8, hydrochloride]    20.5
2) CCCCN(C(=O)c1cc(-c2cc3c(cc2C(=O)N2Cc4ccccc4C[C@H]2C)OCO3)n2c1CNCC2)c1ccc(O)cc1    1010

Let me know recorded IC50 for C[C@@H]1Cc2ccccc2CN1C(=O)c1cc2c(cc1-c1cc(C(=O)N(c3ccc(O)cc3)c3ccc4c(cnn4C)c3)c3n1CCNC3)OCO2 [Example 11, hydrochloride] , thanks. 83.7

###

- Assay System: Bcl-2 protein (histag-Bcl-2, UniProtKB P10415) (Homo sapiens, UniProt P10415)
- Construct: His tag
- Assay: Inhibition of Bcl-2 by the fluorescence polarisation technique
- Format: binding
- Condition Set: fluorescence polarisation, 2 hours incubation; read-out: IC50 (nM) Bcl-2 FP
Structures can show the parent of a compound that is named as a salt.
Quantity Measured: IC50 (nM)
Provide only the numeric value, understood in nM.

Recorded IC50, per entry:
1. O=C(c1cc(-c2cc3c(cc2C(=O)N2Cc4ccccc4C[C@H]2CCCN2CCOCC2)OCO3)n2c1CCCC2)N(c1ccccc1)c1ccc(O)cc1 [Example 38, hydrochloride]    4.6
2. C[C@@H]1Cc2ccccc2CN1C(=O)c1ccc(Cl)cc1-c1cc(C(=O)N(c2ccc(O)cc2)c2ccc3c(cnn3C)c2)c2n1CCNC2 [Example 12, hydrochloride]    10.4

Now for the compound whose IC50 we want.
Write IC50 of COc1ccc(C(=O)N2Cc3ccccc3C[C@H]2CCN2CCOCC2)c(-c2cc(C(=O)N(c3ccccc3)c3ccc(O)cc3)c3n2CCCC3)c1 [Example 28, hydrochloride] ; system used: Bcl-2 protein (histag-Bcl-2, UniProtKB P10415) (Homo sapiens, UniProt P10415) 8.8

###

- Test system: RS4;11 leukaemia tumour line
- Assay: In vitro cytotoxicity (MTT) on RS4;11
- Format: cell-based
- Condition Set: Homo sapiens; RS4;11 cells, 48 hours exposure
Counter-ions that a name gives are not always drawn.
Quantity Measured: IC50

1. C[C@@H]1Cc2ccccc2CN1C(=O)c1ccc(F)cc1-c1cc(C(=O)N(c2ccncc2)c2ccc(O)cc2)c2ccccn12    96.6 nM
2. C[C@@H]1Cc2ccccc2CN1C(=O)c1cc2c(cc1-c1cc(C(=O)N(c3ccc(O)cc3)c3ccncc3F)c3ccccn13)OCO2 [Example 46, hydrochloride]    27.9 nM
3. O=C(c1cc(-c2cc3c(cc2C(=O)N2Cc4ccccc4C[C@H]2CCN2CCOCC2)OCO3)n2c1CCCC2)N(c1ccccc1)c1ccc(O)cc1 [Example 13, hydrochloride]    33.6 nM
4. C[C@@H]1Cc2ccccc2CN1C(=O)c1ccc(F)cc1-c1cc(C(=O)N(c2ccncc2)c2ccc(O)cc2)c2n1CCCC2    282 nM
5. O=C(c1cc(-c2cc3c(cc2C(=O)N2Cc4ccccc4C[C@H]2CCN2CCOCC2)OCO3)n2c1CCCC2)N(c1ccc(O)cc1)c1cccc(F)c1 [Example 24, hydrochloride]    28.4 nM

Item C[C@@H]1Cc2ccccc2CN1C(=O)c1cc2c(cc1-c1cc(C(=O)N(c3ccc(O)cc3)c3cnc4ncnn4c3)c3ccccn13)OCO2 : provide IC50 42 nM
